Sourced from paper PMC12592420

# method.summary: in vitro
# measurement.conditions: human, hepatocytes, HH_scaled_CLint,u
readout.name: log10 of CLint scaled at 1 µM (log10 of the value in mL/min/kg)
Scale type: logarithmic (base 10). Underlying CLint scaled at 1 µM unit: mL/min/kg.

Some molecules with known log10 of CLint scaled at 1 µM results, for comparison:
-- ask Any idea what log10 of CLint scaled at 1 µM was measured for Cc1c(C)c2c(c(C)c1O)CCC(C)(COc1ccc(CC3SC(=O)NC3=O)cc1)O2 (centres unmarked) [Troglitazone] ?
-- reply 3.13

-- ask Likewise for CCN(C(=O)c1cc(F)ccc1Oc1cncnc1N1CC2(CCN(C[C@H]3CC[C@H](NS(=O)(=O)CC)CC3)CC2)C1)C(C)C [Revumenib] ?
-- reply 1.01

-- ask Can you handle COc1ccccc1OCCNCC(O)COc1cccc2[nH]c3ccccc3c12 (centres unmarked) [Carvedilol] next?
-- reply 2.63

-- ask // next record CN(C)CCCOc1nn(Cc2ccccc2)c2ccccc12 [Benzydamine]
-- reply 1.42

From here, focus on the item given below.
-- ask So what does the record say about log10 of CLint scaled at 1 µM for CC(C)c1nc(CN(C)C(=O)N[C@H](C(=O)N[C@@H](Cc2ccccc2)C[C@H](O)[C@H](Cc2ccccc2)NC(=O)OCc2cncs2)C(C)C)cs1 [Ritonavir] ?
-- reply 1.69
